src = the EternaBench riboswitch data

- System: MS2 coat protein
- Assay Procedure: apparent Kd, MS2 coat protein; higher = weaker binding; RNA-MaP array; FMN 200 µM where present
- Condition Set: ligand present: flavin mononucleotide; designed as: OFF switch for flavin mononucleotide
Endpoint: apparent Kd (nM)
Answers are plain numbers, in nM.

Below, each entry is followed by its recorded apparent Kd result.
>>> df
                             query_sequence     endpoint  reading_unit  observed
0  AAUUAUUUACAGAAGGAGUAAGAUUAUGUAUUACUAGGAUAUGUUCACAUGAGGAUCACCCAUGUACUAGUUGGUUUUUUAUGU  apparent Kd            nM      17.1
1  GACUUGUUAGGAUAUCUUACAUUUGCAUCAUAGUAACCUUUGGAGAAGGGACAUGAGGAUCACCCAUGUUUGGU  apparent Kd            nM      53.5
2  GUAGUGUAUGUAGGAUAUGUGAAGCAAAGCUUCACAGAAGGACAUGAGGAUCACCCAUGUAUUGCAGUCUGCAAUCAGACUGCU  apparent Kd            nM       152

# batch size: 2; output apparent Kd per entry
1. UAGCCUGUAGGAGUGGAAGCCGGUAGAAGGCAGCAUUGAUGGACCGACAUGAGGAUCACCCAUGUUGAGGAUAUACCGGGCACU
2. CGAUGACAUAGUCAUCCGUAACGGACAUGAGGAUCACCCAUGUAGGAUAUGCUACUCAACGAGUAGCAGAAGGACAUGAGUCUU

# output
247
347

# batch size: 2; output apparent Kd per entry
1. CUUAUGUGAGGAUAUGUACAGAAAAAAAAGGGUGUAACUGUACAGAAGGCACAUGAGGAUCACCCAUGUGCAUU
2. AGCAUGCUAGGAUAUACGAAACAUUAGGGUUCUUUGUAUAAACAUGAGGAUCACCCAUGUAGAAGGAGCGUGCA

# output
1. 50.4
2. 169

---

Provide the reported apparent Kd of each item.
- Test system: MS2 coat protein
- Assay Procedure: apparent Kd, MS2 coat protein; higher = weaker binding; RNA-MaP array; FMN 200 µM where present
- Condition Set: ligand present: flavin mononucleotide; designed as: ON switch for flavin mononucleotide
Give bare numbers, in nM.

Below, each entry is followed by its recorded apparent Kd result.
In [3]: df
Out[3]:
                             query_sequence  observed
0  GUAGCAUACAGAGGAUAUCUUAACCGGAAACGGACAUGAGGAUCACCCAUGUGGCGAAAGCCUAGGGAGAAGGCUGAAUGCUAC      11.1
1  ACAUGCAUAGCGAUAUGAUCGAGAGAUCAUGUCGCUAAAGUUAGAAGGACAUGAGGAUCACCCAUGUAGGAUAUGGGUGCAUGA      48.7
2  GGAGUACAUGAGGAUCACCCAUGUUGGAACGAAGUAGGAUAUGUACAAUAUUAAAUAAAAACAGAAGGACUAAUAA        39
3  AACAGGUUCACAUGAGGAUCACCCAUGUUAGCCUAACGUAGGAGAAGGGCGGUAGCUGGGCUGACGUAGGAUAUCCUACUGUGA      5.79
4  UGGUACUAGGCAGGAUAUGGGAAGAUACAUGAGGAUCACCCAUGUUUAAGAAUGCCGAGAGGCAACUAGAAGGCCCUAGUACCU       620

# batch size: 4; output apparent Kd per entry
1. GAGAAUACACUCGUCUCCGCUCAACCAGAAGGGCAUGAUAAUAUUACAUGAGGAUCACCCAUGUUGCAGGAUAUGGUGAGCCUC
2. GGAUCCAUCACAGGAUAUGCUGGACUUUGUCCAGCAGAAGGGUGAACAUGAGGAUCACCCAUGUAAAAGGAUCCUAUAUUUAAU
3. AGCUACGUUUCGUAGCAGUGUCAUCGAGAAGGCUCAUAAACAUGAGGAUCACCCAUGUAUUCAUGGGAGGAUAUCGAUGAUACA
4. AGCGAACAGGCUAACAUGAGGAUCACCCAUGUGGACUCAUGGUAGGAUAUCGGGAAGGAGGAAACCGAGAAGGGCCGGUGAGCA

# output
1: 58.9; 2: 24.9; 3: 6.04; 4: 80.9

# batch size: 6; output apparent Kd per entry
1. UUGCUCGUGUGAGGAUAUGCCGCCGUUUCGGCUGCAGAAGGUACUUUAAUACAUGAGGAUCACCCAUGUCUCUGUUGUUUCGUG
2. UUGGACGUCGUAGGAUGUGUAGGAUAUUCCUACAUGAGGAUCACCCAUGUUGACAUGGAAGAAGGACAGAAGGACGAUGUCCAU
3. GUAGGACAUGAGGAUCACCCAUGUGGGAGGGAACGAGGAUAUGUGAAAGGAUUGAAGAGGACAGAAGGCGUGGAGG
4. CAUUCCCGUCGAGGAUAUAUUAUAUGACAACAAACACAUACAUGAGGAUCACCCAUGUCCCAUGUAUAGAAGGCGACCUGCGUC
5. GGUAGAAACAUUAACAUGAGGAUCACCCAUGUCAAAAGAAAUGAGGAUAUCGUAUACAAUGUAUAUGAGAAGGCAUGGUCUGCC
6. ACGGUGGUCACAGGAUAUCCGGCCCGCGUGCCUGGAGAAGGGUGACUCAGAACCACAUGAGGAUCACCCAUGUGCCUUGCCGUA

# output
[26.9, 12.9, 35.3, 99.3, 6.45, 31.9]

# batch size: 2; output apparent Kd per entry
1. GUAUGGAUUACAGGAUAUGUUAGUUUUAAGUGUAUUGGUUAUUACUUAAUUACAGAAGGGUAUUACAUGAGGAUCACCCAUGUA
2. CGAAAAUUUCAGAAGGACCAAUUCCACAUGAGGAUCACCCAUGUCGAUGGUAGGAUAUGGAGUUGUGGACAGGGUGGAUGUUCC

# output
11.5
12.6

# batch size: 3; output apparent Kd per entry
1. UCGACCAGCGCCGCUCGAACAUGAGGAUCACCCAUGUACUCCAGAAGGCCGCCCAAGUACGGAGUGGAGGAUAUGGAGGUUCUC
2. GUGGUCAGACAUGAGGAUCACCCAUGUGGAAUAAAUAACGAACAGGAUAUGCAAUAUAGGAUAUAGUAGAAGGGUUGAUUGGUG
3. CAUGUCCUCACAGGAUAUGCACCACUUUGUGGUGCAGAAGGGUGAAUACAUGAGGAUCACCCAUGUGGACAUGAUAUAUUUAAU

# output
25.4
138
72.2

# batch size: 3; output apparent Kd per entry
1. CCUGACGCAUCAGGAUAUGCUUACAUCCAUGUUGCAGAAGGGAUGCGUUCUGAAAACAUGAGGAUCACCCAUGUAAGCGGCCAA
2. AAUAUUUUUUGAGGAUAUUCAUACACUGUAUACGGAGAAGGCAAACAAUCAUGAGGACAUGAGGAUCACCCAUGUUGUGACCAU
3. AGUAAGAUGCAGAAGGUGUCAGCGAGAGCUACGACAUGAGGAUCACCCAUGUACUAGUGAGAGUACGAGGAUAUGCAUCUUACA

# output
[52.2, 12.8, 13.9]

# batch size: 5; output apparent Kd per entry
1. CGCCGACAUGAGGAUCACCCAUGUCACAACUGGUCAGGAUAUGGUAUGAUUUGGCUAUUGCCAGAAGGGACCUCAG
2. AGGAGACAUGAGGAUCACCCAUGUGCACGUGGAGGAGGAUAUGCUAGUAGAAGAUAGAAAGCAGAAGGCCUAAGAA
3. CGCUACGUUUCGUAGCAGUGUCAUCGAGAAGGCCCUGACAUGAGGAUCACCCAUGUUGUUACAUGGGAGGAUAUCGAUGAUACC
4. GUAGCAUACCGAGGAUAUUCUUACCGGAAACGGACAUGAGGAUCACCCAUGUGGCGAAAGCCUUUGGAGAAGGCGGAAUGCUAC
5. AAGUUUGUACGAGGAUAUCAAUUGUUUCUAAAUUCAACAUGAGGAUCACCCAUGUAACAAUGGAGUGAGAAGGCGUGUGGGCAA

# output
1: 21; 2: 80.5; 3: 5.25; 4: 12.4; 5: 203
